test: Solubility of drug in water; assay type: physicochemical
For each of the compounds below, state its solubility.

IN: What measured solubility goes with CC[C@@H]1C[C@H](N(Cc2cc(C(F)(F)F)cc(C(F)(F)F)c2)C(C)=O)c2cc(C(F)(F)F)ccc2N1C(=O)OC(C)C ?
OUT: < 1 µg/mL

IN: What measured solubility goes with Cc1onc(-c2ccccc2)c1-c1ccc(S(N)(=O)=O)cc1 [Drug 1, reference compound] ?
OUT: ~10 µg/mL
